- Experimental system: T1, human HER3-Fc (R&D Systems, 348-RB) (human, UniProt P21860 20-643)
- T1 construct: Bought; also called hHER3-Fc; Fc-HER3; Fc part of the bought chimera not given, not described
- Protocol summary: 34C07 competition alphascreen
Collected pIC50 values appear next to each entry.
Note on pIC50: it is the negative log10 of concentration, concentration in mol/L.

These solved cases illustrate the format of a correct answer.
HER3MS00128 (VHH) VHH: DVQLVESGGGLVQPGGSLRLSCAASGSIFRINAMAWYRQAPGKQRELVAEITAGGSTNYADSVKGRFTISRDNSWNTLYLQMNSLRAEDTAVYYCNLDHYTTWDRRSAYWGQGTLVTVSS : 8.17
HER3MS00123 (VHH) VHH: EVQLVESGGGLVQPGGSLRLSCAASGSIFRINAMAWYRQAPGKQRELVAEITAGGSTNYADSVKGRFTISRDNSWNTLYLQMNSLRPEDTAVYYCNLDHYTTWDRRSAYWGQGTLVTVSS : 8.12

Lab note: next binder to report on.
Exam item: Provide only the value of recorded pIC50 for 34C07 (VHH, c-myc, His6-tagged form as expressed; also called 34C7; HER3MS34C07) VHH: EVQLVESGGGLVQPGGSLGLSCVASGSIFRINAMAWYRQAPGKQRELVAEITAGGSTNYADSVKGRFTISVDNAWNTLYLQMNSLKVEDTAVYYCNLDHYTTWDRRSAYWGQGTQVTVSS
Marked response: 8.26
